Each recorded value in this set is attributed to ChEMBL document CHEMBL1133953.

Some compounds, each annotated with its measured IC50 reduction.
Test system: MDA-MB-435
Assay: Percent reduction of inhibitory concentration against LCC6-MDR human breast cancer cell line at 5 uM concentration
Type: functional
Write the number in % without appending the unit.

Exercise: Return IC50 reduction (reported value) for this compound: `CC(=O)O[C@H]1C(=O)[C@@]2(C)[C@H]([C@H](OC(=O)c3ccccc3)[C@]3(O)C[C@H](OC(=O)[C@H](O)[C@@H](NC(=O)c4ccccc4)c4ccccc4)C(C)=C1C3(C)C)[C@]1(OC(C)=O)CO[C@@H]1C[C@@H]2O`
Key: 0

Exercise: State its IC50 reduction: CC(=O)O[C@H]1C(=O)[C@@]2(C)C([C@H](OC(=O)c3ccccc3)[C@]3(O)C[C@H](OC(=O)[C@H](O)[C@@H](NC(=O)c4ccccc4)c4ccccc4)C(C)=C1C3(C)C)[C@]1(OC(C)=O)CO[C@@H]1C[C@@H]2O.COc1cc(NC(C)CCCNS(=O)(=O)c2ccc3ccccc3c2)c2ncccc2c1 (some centres undefined)
Key: 97

Exercise: Supply IC50 reduction value. Item: CC(=O)O[C@H]1C(=O)[C@@]2(C)C([C@H](OC(=O)c3ccccc3)[C@]3(O)C[C@H](OC(=O)[C@H](O)[C@@H](NC(=O)c4ccccc4)c4ccccc4)C(C)=C1C3(C)C)[C@]1(OC(C)=O)CO[C@@H]1C[C@@H]2O.O=S(=O)(c1ccc2ccccc2c1)N(CCCCNc1ccnc2cc(Cl)ccc12)Cc1ccccc1 (some centres undefined)
Key: 99

Exercise: For the compound CC(=O)O[C@H]1C(=O)[C@@]2(C)C([C@H](OC(=O)c3ccccc3)[C@]3(O)C[C@H](OC(=O)[C@H](O)[C@@H](NC(=O)c4ccccc4)c4ccccc4)C(C)=C1C3(C)C)[C@]1(OC(C)=O)CO[C@@H]1C[C@@H]2O.COc1cc(NC(C)CCCN(Cc2ccccc2)S(=O)(=O)c2ccc3ccccc3c2)c2ncccc2c1 (some centres undefined) , report IC50 reduction.
Key: 96

* * *

Entries and their measured pIC50 follow.
Test system: MDA-MB-435
Experiment: Cytotoxicity against paclitaxel sensitive LCC6-WT-human breast carcinoma cell line
Type: functional, cell-based
The meaning of pIC50 here: minus log10 of the concentration in molar units.

Exercise: Hello, please tell me recorded pIC50 for this one: `O=S(=O)(c1ccc2ccccc2c1)N(CCCCCCNc1ccnc2cc(Cl)ccc12)Cc1ccccc1`
Key: 5.77

Exercise: Give pIC50 for the following compound: CC(=O)O[C@H]1C(=O)[C@@]2(C)[C@H]([C@H](OC(=O)c3ccccc3)[C@]3(O)C[C@H](OC(=O)[C@H](O)[C@@H](NC(=O)c4ccccc4)c4ccccc4)C(C)=C1C3(C)C)[C@]1(OC(C)=O)CO[C@@H]1C[C@@H]2O [PACLITAXEL]
Key: 8.10

* * *

System: MDA-MB-435
Test: Cytotoxicity against paclitaxel sensitive LCC6-WT-human breast carcinoma cell line
Assay type: functional, cell-based
quantity-name: IC50

COc1cc(NC(C)CCCN(Cc2ccccc2)S(=O)(=O)c2ccc3ccccc3c2)c2ncccc2c1 (stereo not drawn) = > 10 µM
COc1cc(NC(C)CCCNS(=O)(=O)c2ccc3ccccc3c2)c2ncccc2c1 (stereo not drawn) = > 10 µM

Here is another compound to look at.
Exercise: Consider the compound `O=S(=O)(c1ccc2ccccc2c1)N(CCCCNc1ccnc2cc(Cl)ccc12)Cc1ccccc1` . State its measured IC50.
Key: > 10 µM
